Reported melting point values for the following compounds.

Reference set, count: 4
Compound | melting point
CCCCCCCCCCCCCCCCS(=O)(=O)Nc1ccc(Br)cc1C(=O)C(=O)NCCCNC(=N)N.Cl [Compound 35b] | 64.3 to 66.6 °C
CCCCCCCCCCCCCCCCS(=O)(=O)Nc1ccc(-c2ccccc2)cc1C(=O)C(=O)NCCCNC(=N)N.Cl [Compound 35c] | 74.5 to 77.1 °C
CCCCCCCCCCCCS(=O)(=O)Nc1ccc(Br)cc1C(=O)C(=O)NCCCNC(=N)N.Cl [Compound 34b] | 50 to 50.1 °C
CCCCCCCCS(=O)(=O)Nc1ccc(-c2ccc(-c3ccccc3)cc2)cc1C(=O)C(=O)NCCCNC(=N)N.Cl [Compound 33d] | 49.6 to 50.1 °C

stdin: Which melting point value is on record for CCCCCCCCCCCCCCCCS(=O)(=O)Nc1ccc(-c2ccccc2)cc1C(=O)C(=O)NCCCN(C)C [Compound 12c] ?
stdout: 76.7 to 79.4 °C

stdin: What about CCCCCCCCCCCCS(=O)(=O)Nc1ccccc1C(=O)C(=O)NCCCNC(=N)N.Cl [Compound 34a] ?
stdout: 70 to 72.8 °C

stdin: # iterate: CCCCCCCCCCCCS(=O)(=O)Nc1ccc(-c2ccccc2)cc1C(=O)C(=O)NCCCNC(=N)N.Cl [Compound 34c]
stdout: 73.2 to 73.5 °C

====

Tested on: S. aureus (SA38)
Assay protocol: Minimum inhibitory concentration (MIC) assay against S. aureus
Format: cell-based, Staphylococcus aureus
Condition set: Staphylococcus aureus, S. aureus SA38; read-out: MIC S. aureus
Recorded metric: MIC (µg/mL)

Molecule | Units | Quantitative result
CCCCCCCCCCCCS(=O)(=O)Nc1ccc(-c2ccccc2)cc1C(=O)C(=O)NCCCN(C)C.Cl [Compound 14c] | µg/mL | 9.5
CCCCCCCCCCCCS(=O)(=O)Nc1ccccc1C(=O)C(=O)NCCCN(C)C [Compound 11a] | µg/mL | 15
CCCCCCCCCCCCCCCCS(=O)(=O)Nc1ccccc1C(=O)C(=O)NCCCN(C)C.Cl [Compound 15a] | µg/mL | 36
CCCCCCCCS(=O)(=O)Nc1ccc(-c2ccc(-c3ccccc3)cc2)cc1C(=O)C(=O)NCCCN(C)C [Compound 10d] | µg/mL | 4.6
CCCCCCCCS(=O)(=O)Nc1ccc(-c2cccc(-c3ccccc3)c2)cc1C(=O)C(=O)NCCCN(C)C.Cl | µg/mL | 9.8

a. CCCCCCCCCCCCS(=O)(=O)Nc1ccc(-c2ccc(-c3ccccc3)cc2)cc1C(=O)C(=O)NCCCN(C)C.Cl [Compound 14d]
b. CCCCCCCCCCCCS(=O)(=O)Nc1ccc(Br)cc1C(=O)C(=O)NCCCN(C)C [Compound 11b]
c. CCCCCCCCCCCCCCCCS(=O)(=O)Nc1ccc(Br)cc1C(=O)C(=O)NCCCN(C)C.Cl [Compound 15b]
stdin: Sort these molecules on MIC so the largest reading comes first. Write the labels out in the order the request specifies.
stdout: c, a, b
(c: 163 µg/mL, a: 84 µg/mL, b: 18 µg/mL)

====

# Lookup of reported hemolysis at 3 h, 32 µM keyed by entry
Assay protocol: Haemolysis assay
Format: cell-based
Condition set: washed human red blood cells
Numbers only; they are read as %.

Compound | Units | Quantitative result
CCCCCCCCS(=O)(=O)Nc1ccc(-c2ccc(-c3ccccc3)cc2)cc1C(=O)C(=O)NCCC[N+](C)(C)C.[I-] [Compound 16d] | % | 11

Please turn your attention to the following entry.
stdin: hemolysis at 3 h, 32 µM lookup needed for CCCCCCCCCCCCS(=O)(=O)Nc1ccc(-c2ccccc2)cc1C(=O)C(=O)NCCC[N+](C)(C)C.[I-] [Compound 17c] , thanks.
stdout: 16
